Assay: clinical
Conditions: human, in vivo, plasma concentration, Max
READOUT LABEL: concentration at 0 h (ng/mL)
Express the result in ng/mL but write the number alone.

Just so you know, measured concentration at 0 h for CSc1ccc(C(=O)c2[nH]c(=O)[nH]c2C)cc1 came out at 150

* * *

Assay: clinical
Conditions: human, plasma, 50 mg, Patient 1, dose 50 mg, 1 HR
READOUT LABEL: concentration at 1 h (ng/mL)
Please reply with the bare figure in ng/mL and do not write the unit itself.

The compound CSc1ccc(C(=O)c2[nH]c(=O)[nH]c2C)cc1 showed concentration at 1 h equal to 424

* * *

Assay: clinical
Conditions: human, plasma, Min, 8 hrs, after dosing of enoximone, 5 patients, raw data
READOUT LABEL: concentration at 8 h (ng/mL)
A number alone suffices; assume ng/mL.

The compound listed as CSc1ccc(C(=O)c2[nH]c(=O)[nH]c2C)cc1 shows concentration at 8 h equal to 20.7

* * *

Experiment: clinical
Details: human, plasma, 50 mg, Patient 2, dose 50 mg, 0.5 HR
READOUT LABEL: concentration at 0.5 h (ng/mL)
Give just the numeric value; ng/mL need not be written.

Data point: CSc1ccc(C(=O)c2[nH]c(=O)[nH]c2C)cc1 ; concentration at 0.5 h = 52.8

* * *

Experiment: clinical
Settings: human, plasma, Max, 8 hrs, after dosing of enoximone, 5 patients, raw data
READOUT LABEL: concentration at 8 h (ng/mL)
Answer with a number only, understood to be in ng/mL.

For record CSc1ccc(C(=O)c2[nH]c(=O)[nH]c2C)cc1 [enoximone] the listed concentration at 8 h is 166

* * *

Assay: clinical
Settings: human, in vivo, plasma concentration, Max
READOUT LABEL: concentration at 4 h (ng/mL)
The response must be a number in ng/mL with no trailing unit.

GET /value?item= CSc1ccc(C(=O)c2[nH]c(=O)[nH]c2C)cc1 &field=concentration at 4 h returns 200

* * *

Assay: clinical
Conditions: human, in vivo, plasma concentration, Max
READOUT LABEL: concentration at 8 h (ng/mL)
The reply should contain only the number, in ng/mL.

Entry CSc1ccc(C(=O)c2[nH]c(=O)[nH]c2C)cc1 [enoximone] ; concentration at 8 h = 150

* * *

Experiment: clinical
Conditions: human, plasma, 50 mg, Patient 3, dose 50 mg, 0.5 HR
READOUT LABEL: concentration at 0.5 h
Answer as a quantity: numeral, then unit.

The reported concentration at 0.5 h of the molecule CSc1ccc(C(=O)c2[nH]c(=O)[nH]c2C)cc1 was 92.4 ng/mL

* * *

Assay: clinical
Conditions: human, plasma, 50 mg, Patient 3, dose 50 mg, 2 HR
READOUT LABEL: concentration at 2 h

Just so you know, measured concentration at 2 h for CSc1ccc(C(=O)c2[nH]c(=O)[nH]c2C)cc1 came out at 110 ng/mL

* * *

Experiment: clinical
Conditions: human, plasma, 50 mg, Patient 1, dose 50 mg, 4 HR
READOUT LABEL: concentration at 4 h

Form field concentration at 4 h, entry CSc1ccc(C(=O)c2[nH]c(=O)[nH]c2C)cc1 [enoximone] : 209 ng/mL

* * *

Test: clinical
Details: human, plasma, Min, 2 hrs, after dosing of enoximone, 5 patients, raw data
READOUT LABEL: concentration at 2 h (ng/mL)
Express the result in ng/mL but write the number alone.

Reported concentration at 2 h of CSc1ccc(C(=O)c2[nH]c(=O)[nH]c2C)cc1 : 63.6
